Recorded selectivity ratio values for a group of compounds are listed next.
Test: Selectivity index, ratio of IC50 for rat L6 cells to IC50 for IEF stage of Plasmodium falciparum NF54
Format: toxicity
Settings: read-out: Ratio IC50
propertyLabel: selectivity ratio

1. CC(C)C1=C2OC(C)(C)[C@H]3C[C@@]45O[C@]4(C)[C@H](O)C[C@@]4(CC[C@H]6C(C)(C)CCC[C@]67C[C@@]45[C@@]23O7)C1=O: 12.9
2. CC(=O)[C@@]12C[C@H]3C(C)(C)OC4=C(C(C)C)C(=O)[C@]5(CC[C@H]6C(C)(C)CCC[C@]67C[C@@]51[C@@]43O7)C[C@H]2O: 5.2
3. CC1=C2C[C@@H]3C(C)(C)O[C@]45O[C@@]4(C(C)C)C(=O)[C@]4(CC[C@H]6C(C)(C)CCC[C@]67C[C@]24[C@]35O7)CC1=O: 56.9
4. C=CC1=C[C@@H]2[C@H]3C(C)=CO[C@]45O[C@]67CCCC(C)(C)[C@@H]6CC[C@](C1)(C(=O)[C@]3(C(C)C)C4=O)[C@]25C7: 22
5. CC1=C2[C@H](O)[C@@H]3C(C)(C)OC4=C(C(C)C)C(=O)[C@]5(CC[C@H]6C(C)(C)CCC[C@]67C[C@]25[C@@]43O7)CC1=O: 1.8
6. CC1=C2C[C@@H]3C(C)(C)OC4=C(C(C)C)C(=O)[C@]5(CC[C@H]6C(C)(C)CCC[C@]67C[C@]25[C@@]43O7)CC1=O: 62.2
7. CC(C)=C[C@H]1[C@@H]2C(C)=CC[C@]34CC[C@H]5C(C)(C)CCC[C@]56C[C@]23[C@@](O)(O6)C(=O)[C@]1(C(C)C)C4=O: 44.2
